Reported IC50, Tyrosine-protein phosphatase non-receptor type 6 (Homo sapiens, UniProt P29350).

Readout IC50 for O=C(O)C(=O)Nc1ccc(C#Cc2ccc(OC(F)(F)F)cc2)cc1 , test system Tyrosine-protein phosphatase non-receptor type 6 (Homo sapiens, UniProt P29350), was > 50 µM

The compound COC(=O)c1ccc(C#Cc2ccc(NC(=O)C(=O)O)cc2)cc1O , when measured on Tyrosine-protein phosphatase non-receptor type 6 (Homo sapiens, UniProt P29350), yielded IC50 of > 50 µM

O=C(O)C(=O)Nc1ccc(C#Cc2ccc(C(F)(F)F)cc2)cc1 tested on Tyrosine-protein phosphatase non-receptor type 6 (Homo sapiens, UniProt P29350) gave IC50: > 50 µM

The compound COC(=O)c1cc(C#Cc2ccc(NC(=O)C(=O)O)cc2)ccc1O on Tyrosine-protein phosphatase non-receptor type 6 (Homo sapiens, UniProt P29350): IC50 was > 50 µM

GET /values?item= O=C(O)C(=O)Nc1ccc(C#Cc2ccccc2)cc1 &system= Tyrosine-protein phosphatase non-receptor type 6 (Homo sapiens, UniProt P29350) returns IC50: > 100 µM

Observed IC50 on Tyrosine-protein phosphatase non-receptor type 6 (Homo sapiens, UniProt P29350), entry O=C(O)C(=O)Nc1ccc(C#Cc2ccc3ccccc3c2)cc1 , equals > 50 µM

Item COC(=O)c1cc(C#Cc2ccc(NC(=O)C(=O)O)cc2)c(N(C)C)cc1O ; assay system Tyrosine-protein phosphatase non-receptor type 6 (Homo sapiens, UniProt P29350); IC50 reported as > 50 µM

====

system: Tyrosine-protein phosphatase non-receptor type 11 (Homo sapiens)
Sequence (Q06124 whole entry): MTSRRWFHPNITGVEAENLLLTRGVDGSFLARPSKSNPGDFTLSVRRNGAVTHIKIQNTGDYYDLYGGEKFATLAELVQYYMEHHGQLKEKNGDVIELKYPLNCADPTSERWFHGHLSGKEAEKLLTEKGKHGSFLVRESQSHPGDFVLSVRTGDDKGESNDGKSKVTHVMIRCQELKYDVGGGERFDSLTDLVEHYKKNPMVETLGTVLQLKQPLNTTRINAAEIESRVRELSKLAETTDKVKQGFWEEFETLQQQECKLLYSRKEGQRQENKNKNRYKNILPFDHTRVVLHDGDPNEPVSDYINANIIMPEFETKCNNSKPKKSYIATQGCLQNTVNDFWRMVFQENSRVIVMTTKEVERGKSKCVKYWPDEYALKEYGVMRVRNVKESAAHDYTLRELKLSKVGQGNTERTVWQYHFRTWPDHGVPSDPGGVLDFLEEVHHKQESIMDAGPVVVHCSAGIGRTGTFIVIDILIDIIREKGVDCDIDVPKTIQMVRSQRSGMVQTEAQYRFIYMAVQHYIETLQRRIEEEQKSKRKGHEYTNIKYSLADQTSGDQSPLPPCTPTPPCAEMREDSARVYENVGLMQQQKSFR
As shown below, each of these molecules has a reported IC50 value.

Recorded result, O=C(O)C(=O)Nc1ccc(C#Cc2ccc(C(F)(F)F)cc2Cl)cc1 , IC50: > 30 µM

The reported value for O=C(O)C(=O)Nc1ccccc1 in terms of IC50 is > 100 µM

The reported IC50 of the molecule COC(=O)c1cc(C#Cc2cccc(NC(=O)C(=O)O)c2)c(N(C)C)cc1O was > 50 µM

For this molecule ( O=C(O)C(=O)Nc1ccc(C#Cc2cc(C(F)(F)F)cc(C(F)(F)F)c2)cc1 ), measured IC50 is > 50 µM

In plain terms, C#Cc1ccc(NC(=O)C(=O)O)cc1 has a documented IC50 of > 100 µM

====

A short record of IC50 observed with Tyrosine-protein phosphatase non-receptor type 6 (Homo sapiens, UniProt P29350) follows.
Sequence (P29350 whole entry): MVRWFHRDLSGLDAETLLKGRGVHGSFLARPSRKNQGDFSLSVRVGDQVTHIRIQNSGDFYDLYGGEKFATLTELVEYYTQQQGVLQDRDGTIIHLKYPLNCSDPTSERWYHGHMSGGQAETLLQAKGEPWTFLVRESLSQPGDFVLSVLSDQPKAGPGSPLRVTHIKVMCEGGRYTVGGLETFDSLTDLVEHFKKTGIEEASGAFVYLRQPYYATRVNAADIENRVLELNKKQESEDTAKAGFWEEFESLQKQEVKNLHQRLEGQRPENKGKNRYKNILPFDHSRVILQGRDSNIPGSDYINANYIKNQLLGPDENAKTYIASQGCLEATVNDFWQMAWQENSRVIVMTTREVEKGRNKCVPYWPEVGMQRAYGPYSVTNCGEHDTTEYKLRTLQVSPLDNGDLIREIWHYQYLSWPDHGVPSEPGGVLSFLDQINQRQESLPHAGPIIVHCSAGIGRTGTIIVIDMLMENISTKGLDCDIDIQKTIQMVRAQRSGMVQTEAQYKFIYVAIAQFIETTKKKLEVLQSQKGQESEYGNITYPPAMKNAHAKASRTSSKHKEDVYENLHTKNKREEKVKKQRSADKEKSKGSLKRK

Example cases with answers are listed next.
Reading of IC50 for O=C(O)C(=O)Nc1ccc(C#Cc2ccc(C(F)(F)F)cc2C(F)(F)F)cc1 with Tyrosine-protein phosphatase non-receptor type 6 (Homo sapiens, UniProt P29350): > 30 µM

Kindly note: Tyrosine-protein phosphatase non-receptor type 6 (Homo sapiens, UniProt P29350), N#Cc1ccc(C#Cc2ccc(NC(=O)C(=O)O)cc2)cc1 , IC50 value reported: > 50 µM

// IC50 (Tyrosine-protein phosphatase non-receptor type 6 (Homo sapiens, UniProt P29350)) for O=C(O)C(=O)Nc1ccc(C#Cc2cc(C(F)(F)F)cc(C(F)(F)F)c2)cc1 = > 50 µM

Further cases:
Form: item O=C(O)C(=O)Nc1ccc(C#Cc2ccc(O)c(Br)c2)cc1 ; test system Tyrosine-protein phosphatase non-receptor type 6 (Homo sapiens, UniProt P29350); IC50: > 50 µM

Hey, Tyrosine-protein phosphatase non-receptor type 6 (Homo sapiens, UniProt P29350) data for O=C(O)C(=O)Nc1ccc(C#Cc2ccc(C(F)(F)F)cc2F)cc1 : IC50 came out at > 30 µM

// IC50 (Tyrosine-protein phosphatase non-receptor type 6 (Homo sapiens, UniProt P29350)) for CC(C)(C)c1ccc(C#Cc2ccc(NC(=O)C(=O)O)cc2)cc1 = > 50 µM

Form field, IC50 with Tyrosine-protein phosphatase non-receptor type 6 (Homo sapiens, UniProt P29350), item CC(C)(C)OC(=O)Nc1ccc(C#Cc2ccc(NC(=O)C(=O)O)cc2)cc1 : > 50 µM

====

system: UniProt:P23469
Sequence (P23469 whole entry): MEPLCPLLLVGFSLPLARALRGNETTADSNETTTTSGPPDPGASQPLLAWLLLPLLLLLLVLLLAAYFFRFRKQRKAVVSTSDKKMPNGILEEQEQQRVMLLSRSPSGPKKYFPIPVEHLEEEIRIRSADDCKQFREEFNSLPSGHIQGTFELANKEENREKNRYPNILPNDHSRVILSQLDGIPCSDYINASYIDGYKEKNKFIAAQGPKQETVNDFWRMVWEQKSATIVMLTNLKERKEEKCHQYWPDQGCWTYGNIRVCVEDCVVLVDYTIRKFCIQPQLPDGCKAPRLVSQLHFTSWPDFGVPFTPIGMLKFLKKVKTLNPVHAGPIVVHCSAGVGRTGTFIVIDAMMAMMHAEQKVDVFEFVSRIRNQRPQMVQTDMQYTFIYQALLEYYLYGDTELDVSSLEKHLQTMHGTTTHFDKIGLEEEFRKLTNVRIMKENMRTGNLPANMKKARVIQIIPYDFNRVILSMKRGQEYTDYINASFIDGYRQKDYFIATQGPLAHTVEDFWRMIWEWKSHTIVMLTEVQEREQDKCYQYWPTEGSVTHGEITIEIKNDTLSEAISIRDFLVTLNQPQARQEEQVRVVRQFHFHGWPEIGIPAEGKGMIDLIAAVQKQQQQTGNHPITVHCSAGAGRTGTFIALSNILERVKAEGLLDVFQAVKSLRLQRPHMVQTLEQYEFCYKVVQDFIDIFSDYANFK
measured property: IC50

// returns IC50 for O=C(O)C(=O)Nc1ccc(C#Cc2ccc(C(F)(F)F)cc2)cc1 with UniProt:P23469; value = > 30 µM

====

For Phosphotyrosine protein phosphatase (Mycobacterium tuberculosis, UniProt A0A045ISB3), measured IC50 is reported for the entries below.
Write down the numeric answer in nM and omit the unit.

Entry O=C(O)C(=O)Nc1ccc(CCc2ccccc2)cc1 : IC50 on Phosphotyrosine protein phosphatase (Mycobacterium tuberculosis, UniProt A0A045ISB3) = 1270

Record for O=C(O)C(=O)Nc1ccc(/C=C\c2ccccc2)cc1 under target or system Phosphotyrosine protein phosphatase (Mycobacterium tuberculosis, UniProt A0A045ISB3): IC50 reported as 770

Form: item COC(=O)c1cc(C#Cc2ccc(NC(=O)C(=O)O)cc2)ccc1O ; test system Phosphotyrosine protein phosphatase (Mycobacterium tuberculosis, UniProt A0A045ISB3); IC50: 25

I looked up CN(C)c1cc(O)c(C(=O)O)cc1C#Cc1cccc(NC(=O)C(=O)O)c1 and its IC50 for Phosphotyrosine protein phosphatase (Mycobacterium tuberculosis, UniProt A0A045ISB3) was 160

Form field IC50 for item O=C(O)C(=O)Nc1ccc(CCc2ccc(C(F)(F)F)cc2)cc1 on Phosphotyrosine protein phosphatase (Mycobacterium tuberculosis, UniProt A0A045ISB3): 197

The molecule O=C(O)C(=O)Nc1ccc(C#Cc2cc(C(F)(F)F)cc(C(F)(F)F)c2)cc1 on Phosphotyrosine protein phosphatase (Mycobacterium tuberculosis, UniProt A0A045ISB3): IC50 was 60

// IC50 (Phosphotyrosine protein phosphatase (Mycobacterium tuberculosis, UniProt A0A045ISB3)) for O=C(O)C(=O)Nc1ccc(/C=C\c2ccc(C(F)(F)F)cc2)cc1 = 684

For COC(=O)c1cc(C#Cc2ccc(NC(=O)C(=O)O)cc2)c(N(C)C)cc1O on Phosphotyrosine protein phosphatase (Mycobacterium tuberculosis, UniProt A0A045ISB3), measured IC50 was 30

Others:
Tested on Phosphotyrosine protein phosphatase (Mycobacterium tuberculosis, UniProt A0A045ISB3): CC(C)(C)c1ccc(C#Cc2ccc(NC(=O)C(=O)O)cc2)cc1 . Observed IC50: 26

Bench note, Phosphotyrosine protein phosphatase (Mycobacterium tuberculosis, UniProt A0A045ISB3): entry CN(C)c1cc(O)c(C(=O)O)cc1C#Cc1ccc(NC(=O)C(=O)O)cc1 , its IC50 = 90

// assay Phosphotyrosine protein phosphatase (Mycobacterium tuberculosis, UniProt A0A045ISB3), entry O=C(O)C(=O)Nc1ccc(C#Cc2ccccc2)cc1 , IC50 value = 257

====

Assay read-out IC50; system under study: Tyrosine-protein phosphatase non-receptor type 11 (Homo sapiens).

Some solved cases for reference:
What the record says about O=C(O)C(=O)Nc1ccc(C#Cc2ccc(OC(F)(F)F)cc2)cc1 : IC50 is > 50 µM

According to the records, this compound CC(C)(C)OC(=O)Nc1ccc(C#Cc2ccc(NC(=O)C(=O)O)cc2)cc1 displays IC50 of > 50 µM

The measured IC50 associated with O=C(O)C(=O)Nc1ccc(C#Cc2ccccc2)cc1 reads > 100 µM

---
Looking up O=C(O)C(=O)Nc1ccc(CCc2ccccc2)cc1 , I see its IC50 listed as > 30 µM

Briefly, IC50 measured for O=C(O)C(=O)Nc1ccc(/C=C\c2ccc(C(F)(F)F)cc2)cc1 : > 30 µM

Input O=C(O)C(=O)Nc1ccc(C#Cc2ccc(C(F)(F)F)cc2C(F)(F)F)cc1 . Output IC50: > 30 µM

Note to self: IC50 recorded for COC(=O)c1cc(C#Cc2ccc(NC(=O)C(=O)O)cc2)c(N(C)C)cc1O was > 50 µM

Per the records, this compound ( NS(=O)(=O)c1ccc(C#Cc2ccc(NC(=O)C(=O)O)cc2)cc1 ) has IC50 equal to > 50 µM

# compound O=C(O)C(=O)Nc1ccc(C#Cc2ccc(C(F)(F)F)cc2F)cc1 ; its IC50 = > 30 µM

The compound listed as CC(C)(C)c1ccc(C#Cc2ccc(NC(=O)C(=O)O)cc2)cc1 has a reported IC50 of > 50 µM

Measured IC50, O=C(O)C(=O)Nc1ccc(/C=C\c2ccccc2)cc1 : > 30 µM

Short answer for O=C(O)C(=O)Nc1ccc(C#Cc2cccc(C(F)(F)F)c2)cc1 : IC50 was > 50 µM

====

system: Tyrosine-protein phosphatase non-receptor type 6 (Homo sapiens, UniProt P29350)
measured property: IC50

# count of solved cases: 3
GET /value?item= O=C(O)C(=O)Nc1ccc(C#Cc2ccc(C(F)(F)F)cc2Cl)cc1 &field=IC50 returns > 30 µM

Form field IC50, entry O=C(O)C(=O)Nc1ccc(C#Cc2ccc(O)cc2)cc1 : > 50 µM

Noted for COC(=O)c1cc(C#Cc2cccc(NC(=O)C(=O)O)c2)c(N(C)C)cc1O : its IC50 reads > 50 µM

// switching to the query molecule
The reported value for O=C(O)C(=O)Nc1ccc(C#Cc2cccc(C(F)(F)F)c2)cc1 in terms of IC50 is > 50 µM
